Test system: MvaT
experiment.notes: PBM 8-mer E-score (mean of HK and ME arrays) (E-score (dimensionless, -0.5 to 0.5)); higher = stronger relative binding preference
The full ranking holds about 33,000 sequences; the median of “E-score (dimensionless, -0.5 to 0.5)” is about -0.058, and the highest 2% start at about 0.35. The sample as a whole holds a higher share of the highest values than the screen did.
endpoint: PBM 8-mer E-score

- ATAACTCG: 0.255
- AATAGTCG: 0.218
- ATTACTTA: 0.334
- TACTATAA: 0.387
- GAGTAATA: 0.287
- CGCACCCG: -0.242
- ACCCAATC: -0.0955
- TAACTTAA: 0.406
- AACAAGAT: 0.164
- AACTATAC: 0.227
- ATCCCGCC: -0.0462
- GTATTTCA: 0.223
- AAGGAGTC: -0.047
- CATGGAGC: -0.21
- AACAAAAT: 0.35
- AACAAAAA: 0.239
- GCCACGCA: -0.169
- CCCCAAAA: -0.131
- AAGTACTA: 0.257
- GTGACCCA: -0.143
- GGACTTTA: -0.06
- GGATTTTA: 0.112
- TACTTTAA: 0.422
- CCCTGGAA: -0.276
- CCTTTGAG: -0.158
- CGTTGACC: -0.113
- CAGACGGA: -0.156
- TAGTAACA: 0.274
- AGAACTTG: 0.214
- ACGCAGTG: -0.257
- TAGTAAAA: 0.315
- AGGCGAGA: -0.0992
- CACAAATA: 0.338
- ATTATCTC: 0.157
- CACATATA: 0.405
- AACCGTTG: -0.0901
- CTTCAACA: 0.0315
- AAACTTTC: 0.312
- CTAACTTC: 0.168
- GTGAACCA: -0.139
- AATACATG: 0.224
- AAACTTTG: 0.317
- CTGGCATC: -0.181
- CACATATG: 0.196
- AGGTGCAT: -0.0802
- GGTTGATA: 0.124
- AAGTACTT: 0.41
- AATACATT: 0.374
- AACAAATA: 0.369
- TGCTTTAA: 0.094
- ATTTGTTG: 0.172
- CTATTTTA: 0.261
- CAACACCA: 0.0286
- CTTACTTC: 0.208
- CAGTAATA: 0.273
- AGCATATA: 0.383
- AGCGTTGA: -0.0483
- AAGTAATC: 0.186
- AAACTTAA: 0.326
- TCTAGGCA: -0.16
- AACTTTCT: 0.22
- ACGTAATA: 0.29
- GGATTTAA: 0.283
- AACCGCAA: 0.00741
- AAACTTAC: 0.306
- GTATTTAA: 0.368
- CGTCCCCC: -0.209
- GCGATAGC: -0.262
- CACTTTCA: 0.136
- AACGCTTA: 0.0532
- AAAGCCTA: 0.125
- CGATACCC: -0.141
- AACAAGTA: 0.343
- GCCGACTA: -0.209
- GCAATACA: 0.0621
- CGTAAGAC: -0.107
- ACCTTGCG: -0.0997
- GACTTTAA: 0.262
- TACAAATA: 0.355
- AAGCGTCA: -0.00559
- AAACTTAT: 0.381
- AAAGCGTT: 0.0685
- GCGAGTCA: -0.112
- GAACTTGA: 0.266
- AAGCTTTA: 0.0937
- CGTGCGGA: -0.146
- AAAGACCC: -0.224
- CGGAGAGA: -0.145
- ATTATCTG: 0.355
- ACACTAAT: 0.345
- ATAATGGA: 0.238
